test: qHTS Assay to Find Inhibitors of Chronic Active B-Cell Receptor Signaling: Hit Validation in Renilla Reporter Assay; conditions: TMD8 IkB-Renilla luciferase reporter, NF-kB signaling; series mostly up to 57.5 µM; further: nearly all actives have a fitted effect of over 70% in size; further: potency means the concentration at half of the fitted maximal effect
Out of some 1,200 compounds screened, about 55 (5%) were called active. About 15% were inconclusive and are not listed. This is one part of a sample in which actives are shown more often than they occur.
MEASUREMENT KIND: Potency

>  <MOLECULE>
CN(C)c1nc(=Nc2cccc(Cl)c2)ss1

>  <Potency>
10.7 µM (active)

$$$$
>  <MOLECULE>
Cc1onc(-c2ccccc2)c1C(=O)Nc1cc(C(F)(F)F)ccc1N1CCOCC1

>  <Potency>
inactive

$$$$
>  <MOLECULE>
Cc1ccc(NC(=S)NC(=O)C2CC2)cc1Cl

>  <Potency>
inactive

$$$$
>  <MOLECULE>
O=C(/C=C/c1ccco1)NC(=S)Nc1cccc(-c2nc3ccccc3o2)c1

>  <Potency>
inactive

$$$$

Ask | State the recorded Potency for this entry: N#CC1=C(N)Oc2cc(N)ccc2C1c1cccc(Br)c1 (configuration not stated)
Reply | inactive

Ask | Another: Cc1cc(NC(=O)CSc2nc3ccccc3c(=O)n2C2CCCC2)no1
Reply | inactive

Ask | Another: CC(C)N=C(NS(=O)(=O)c1ccccc1)C(Cl)(Cl)Cl
Reply | 26.9 µM (active)

Ask | Another: CCOc1ccc(S(=O)(=O)NCc2ccccn2)cc1NC(=O)c1ccccc1F
Reply | inactive

Ask | Another: Cc1ccc(OCCN2C(=O)C(=O)c3cc(C)ccc32)cc1
Reply | inactive

Ask | Another: O=[N+]([O-])c1ccc(Sc2nc3ccccc3o2)c([N+](=O)[O-])c1
Reply | 3.01 µM (active)

Ask | Another: CCOc1ccc(N(CC(=O)Nc2ccccc2C)S(=O)(=O)c2c(C)noc2C)cc1
Reply | inactive

Ask | Another: Cc1ccc(NS(=O)(=O)c2ccc(-c3cnc(C4CC4)o3)cc2)c(C)c1
Reply | inactive

Ask | Another: CCOC(=O)c1[nH]c(C)c(C(=O)c2cc(F)ccc2F)c1C
Reply | inactive

Ask | Another: Cc1ccc(COC(=O)c2cc([N+](=O)[O-])ccc2N2CCOCC2)cc1
Reply | inactive

----------
experiment: qHTS Assay to Find Inhibitors of Chronic Active B-Cell Receptor Signaling: Hit Validation in Renilla Reporter Assay; settings: TMD8 IkB-Renilla luciferase reporter, NF-kB signaling; series mostly up to 57.5 µM; further: nearly all actives have a fitted effect of over 70% in size
About 55 (5%) of roughly 1,200 compounds were called active. About 15% were inconclusive and are not listed. Calls come from the whole dose curve; as a rule, active = well fitted inhibition curve with a large enough effect; inconclusive = small, poorly fitted or top-dose-only effect; inactive = no such curve, though single readings can be large or run the other way. This is one part of a sample in which actives are shown more often than they occur.
Mark one answer only. Choices: active, inactive

>  <MOLECULE>
COCCn1c(-c2cccc([N+](=O)[O-])c2)nc2c1c(=O)[nH]c(=O)n2Cc1ccccc1

>  <CATEGORY>
inactive

$$$$

Consider the additional molecule presented here.
Ask | Can you look up the reported call for ClCc1nc2ccccc2c2ccccc12 for me?
Reply | active

----------
test: qHTS Assay to Find Inhibitors of Chronic Active B-Cell Receptor Signaling: Hit Validation in Renilla Reporter Assay; details: TMD8 IkB-Renilla luciferase reporter, NF-kB signaling; series mostly up to 57.5 µM; further: nearly all actives have a fitted effect of over 70% in size
Among all 1,200 compounds or so, about 55 (5%) were called active. Inconclusive results (about 15%) are left out. Calls follow the shape of the dose curve; as a rule, active = well fitted inhibition curve with a large enough effect; inconclusive = small, poorly fitted or top-dose-only effect; inactive = no such curve, though single readings can be large or run the other way. This is one part of a sample in which actives are shown more often than they occur.
Mark one answer only. Choices: active, inactive

Completed entries (count: 3):
>  <STRUCTURE SMILES STRING>
Cc1ccc(/C=N/NC(=O)c2cc(-c3cccnc3)nc3ccccc23)cc1

>  <CATEGORY>
inactive

$$$$
>  <STRUCTURE SMILES STRING>
CN(C)/C=N/c1sc2c(c1C#N)CCCC2

>  <CATEGORY>
inactive

$$$$
>  <STRUCTURE SMILES STRING>
S=c1nn[nH]n1C12CC3CC(CC(C3)C1)C2

>  <CATEGORY>
inactive

$$$$

Ask | Can you look up the reported call for COc1cc(/C=C\C(=O)OCn2nnc3ccccc3c2=O)cc(OC)c1OC for me?
Reply | inactive

Ask | Another: COc1cc2c(cc1OC)-c1cc(Nc3ccc(C)cc3)nc(=O)n1CC2
Reply | inactive

Ask | Another: CCN(CC)c1ccc(NC(=O)CN2CCN(CC(=O)Nc3ccccc3F)CC2)cc1
Reply | inactive

Ask | Another: C=CCn1c(SCC(=O)Nc2cccc(S(N)(=O)=O)c2)nc2sc(C)c(C)c2c1=O
Reply | inactive

Ask | Another: O=C(CCl)Nc1cccc(S(=O)(=O)NC2=NCCCCC2)c1
Reply | active

Ask | Another: COc1ccc(S(=O)(=O)Nc2cc3c(C(C)=O)c(C)oc3c3ccccc23)cc1
Reply | inactive

Ask | Another: O=C(CCl)Nc1cc(S(=O)(=O)N2CCCCCC2)ccc1Cl
Reply | inactive

Ask | Another: Cc1ccc(C(=O)c2cc([N+](=O)[O-])ccc2N2CCCCC2)cc1
Reply | inactive
